For each record, write down the corresponding Percent Effect.
- Test system: Wolbachia pipientis
- METHOD NOTES: Anti-Wolbachia Cell-Based Screen
- Assay type: functional
- Design: scale not given: in the data most compounds retested in dose-response had high values
- CONDITION DETAILS: 5 µM
Among all 48,000 compounds or so, about 13,000 (27%) showed an effect of 50% or more. Some of the results follow.
Form entry: value (%) — number only.

**Q:** What value of Percent Effect has been reported for the following molecule? Cc1nc2n(n1)CC(NCC(=O)N(C)Cc1cccs1)CC2 (stereo unspecified)
**A:** 8.702

**Q:** Then Fc1cccc2c1CCC2NCc1cnc(N2CCOCC2)nc1 (stereo unspecified) ?
**A:** 3.105

**Q:** Then `CCOc1ccnc(N2CCN(C(=O)c3cccc(C#N)c3)CC2)n1` ?
**A:** 3.478

**Q:** Then O=C(CN1CCCC(c2ncc[nH]2)C1)NCC(F)(F)F (stereo unspecified) ?
**A:** -4.538

**Q:** Then `CCCc1cc(=O)[nH]c2nnc(SCC(=O)NC(C)(C)C)n12` ?
**A:** 7.571

**Q:** Then `COCCN1CCN(C(=O)C[C@@H]2C[C@@H](C(C)C)[C@H](CO)C=C2C)CC1` ?
**A:** -1.318
